system: NIK; construct: gene MAP3K14; settings: concentration: 1 μM, replicates: in singlicate; n = 1
Result type: %Inh (%)
The response must be a number in % with no trailing unit.

Below, 5 molecules whose answers are already recorded.
{"columns": ["Molecule", "%Inh (%)"],
 "data": [
  ["FC(F)(F)c1ccc(-c2ncn(CCCN3CCOCC3)c2-c2ccncc2)cc1 [SB-217780]", 0],
  ["CCCNC(=O)Nc1ccc(Oc2ncnc3ccn(C)c23)cc1", 0],
  ["Cc1nn2c(=O)cc(N3CCOCC3)nc2n1Cc1cccc(Cl)c1Cl [GSK2342769]", 0],
  ["O=C1NC(=O)C(c2ccccc2)=C1Nc1cccc(O)c1 [SB-390534]", 3],
  ["CCCC(=O)Nc1n[nH]c2ncc(-c3cccc4ccccc34)cc12 [SB-642057]", 11]
]}

Data request, read-out %Inh, for COC(=O)c1c(-c2ccccc2)c2cc(C)ccc2c(=O)n1Cc1ccccc1
100

Record request: %Inh value, item O=C(NCCNc1ccnc(Nc2ccc(F)cc2)n1)Nc1ccc2c(c1)OCO2 [GSK1379882]
22

Fill in the blank: the reported %Inh of COc1cc2nccc(Nc3cccc(Oc4ccccc4)c3)c2cc1OC.Cl [GW284543] is ____.
37

* * *

test system: GRK4;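 also: kd values determined as follow-up on hits from a single-replicate KINOMEscan panel screen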
Result type: Kd

# Kd lookup, item CN1C(=O)C(Nc2cc(Cl)c(O)c(Cl)c2)=C(c2ccc(Cl)cc2)C1=O [SB-404321]
> 10 µM

* * *

system: RIOK1; settings: concentration: 1 μM, replicates: in singlicate; n = 1
Would you please tag the item yes (1) when its %Inh is 20% or above, and no (0) when it is below?

{"columns": ["Compound", "Label value"],
 "data": [
  ["Cc1ccc(-c2ccc3c(ccc4sc5c(c43)NC[C@@H](C)N=C5N(C)C)n2)cn1", "no (0)"],
  ["CCS(=O)c1ccc(-c2coc3ccc(-c4nnc(C)o4)cc23)cc1 (centres unmarked)", "no (0)"],
  ["COc1cc(Nc2nccc(N3CCC(NC(=O)C(C)c4ccc(Cl)cc4)C3)n2)cc(OC)c1OC (centres unmarked)", "yes (1)"],
  ["O=C(NCCNc1ccnc(Nc2ccc(F)cc2)n1)Nc1ccc2c(c1)OCO2", "no (0)"],
  ["COc1cc2nccc(Nc3cccc(Oc4ccccc4)c3)c2cc1OC.Cl", "yes (1)"],
  ["CCc1ccc(-c2ccc3c(c2)-c2nn(C)cc2S(=O)(=O)N3C)cc1", "no (0)"],
  ["CN(C)c1cc(-c2ccc3c(N)n[nH]c3c2)nc(N)n1", "yes (1)"],
  ["Nc1nc(-c2ccccc2F)c(-c2ccnc3ccccc23)s1", "yes (1)"]
]}

Determine whether this compound has %Inh no lower than 20%: CCCNC(=O)Nc1ccc(Oc2ncnc3ccn(C)c23)cc1
no (0)

Hi team, for O=C(Nc1n[nH]c2cc(-c3ccccc3F)ccc12)C1CC1 , is the recorded %Inh at or above 20%?
yes (1)

Dear colleague, could you confirm whether COc1ccc(-c2cc3c(C)nc(N)nc3n([C@H]3CC[C@H](O)CC3)c2=O)cn1 has %Inh at or above 20%?
no (0)

Hi team, for COc1ccc(-c2cc3c(C)nc(N)nc3n([C@H]3CC[C@H](OCCO)CC3)c2=O)cn1 , is the recorded %Inh at or above 20%?
no (0)

Determine whether measured %Inh meets or exceeds 20% for Nc1n[nH]c2nnc(-c3ccccc3)c(-c3ccccc3)c12
yes (1)
